experiment: in vivo; type: in vivo, male Sprague-Dawley rats; conditions: rat, in vivo, iv, Tissue distribution, Spleen
experimental.readout: tissue uptake at 1 h (%ID/g)

[P] O=C(CCCC[C@@H]1SC[C@@H]2NC(=O)N[C@@H]21)NCCC[18F] [Biotin 1]
[Q] O=C1N[C@H]2[C@H](CS[C@H]2CCCCC[18F])N1 [Biotin 2]
Query :: Name the one with the greater tissue uptake at 1 h value, either P or Q as given. Lab log: write the label of the selected item as the result.
Result :: Q

====

Experiment: in vivo
Type: in vivo, male Sprague-Dawley rats
Conditions: rat, in vivo, iv, Tissue distribution, Liver
Experimental: A clinical isolate of E. Coli was stored at -70°C in a freezing media containing 20% glycerol and 80% dextrose phosphate until use. […] Twenty-four hours after injection, swelling in the right thigh readily appeared, and 24 rats each received 1.67 mg of avidin in saline via the tail vein. […] A total of eleven different tissues were excised, weighed, and counted. […] The excised tissues were blotted, weighed, and counted in a scintillation well counter. […]
experimental.readout: tissue uptake at 5 min (%ID/g)

The recorded tissue uptake at 5 min for O=C1N[C@H]2[C@H](CS[C@H]2CCCCC[18F])N1 [Biotin 2] is 1.63

Documented tissue uptake at 5 min of O=C(CCCC[C@@H]1SC[C@@H]2NC(=O)N[C@@H]21)NCCC[18F] [Biotin 1] : 1.39

====

assay: in vivo; assay type: in vivo, male Sprague-Dawley rats; settings: rat, in vivo, iv, Tissue distribution, Kidney
experimental.readout: tissue uptake at 1 h (%ID/g)
Just the number please, in %ID/g, no unit attached.

Note to self: tissue uptake at 1 h recorded for O=C(CCCC[C@@H]1SC[C@@H]2NC(=O)N[C@@H]21)NCCC[18F] was 0.23

====

test: in vivo; assay type: in vivo, male Sprague-Dawley rats; conditions: rat, in vivo, iv, Tissue distribution, Heart
experimental.readout: tissue uptake at 1 h (%ID/g)

[1] O=C1N[C@H]2[C@H](CS[C@H]2CCCCC[18F])N1 [Biotin 2]
[2] O=C(CCCC[C@@H]1SC[C@@H]2NC(=O)N[C@@H]21)NCCC[18F] [Biotin 1]
Query :: Of 1 and 2 , which shows the smaller tissue uptake at 1 h value? Your answer should be the label of the entry you select.
Result :: 2
(2: 0.14 %ID/g, 1: 0.25 %ID/g)

====

Assay: in vivo
Assay type: in vivo, male Sprague-Dawley rats
Details: rat, in vivo, iv, Tissue distribution, Heart
Protocol: A clinical isolate of E. Coli was stored at -70°C in a freezing media containing 20% glycerol and 80% dextrose phosphate until use. […] Twenty-four hours after injection, swelling in the right thigh readily appeared, and 24 rats each received 1.67 mg of avidin in saline via the tail vein. […] A total of eleven different tissues were excised, weighed, and counted. […] The excised tissues were blotted, weighed, and counted in a scintillation well counter. […]
experimental.readout: tissue uptake at 5 min (%ID/g)

# tissue uptake at 5 min of O=C(CCCC[C@@H]1SC[C@@H]2NC(=O)N[C@@H]21)NCCC[18F] = 1

Quick note, tissue uptake at 5 min for O=C1N[C@H]2[C@H](CS[C@H]2CCCCC[18F])N1 landed at 0.8

====

experiment: in vivo; type: in vivo, male Sprague-Dawley rats; details: rat, in vivo, iv, Tissue distribution, Kidney
experimental.readout: tissue uptake at 5 min (%ID/g)

[a] O=C(CCCC[C@@H]1SC[C@@H]2NC(=O)N[C@@H]21)NCCC[18F]
[b] O=C1N[C@H]2[C@H](CS[C@H]2CCCCC[18F])N1
Query :: Of a and b , which one carries the higher reported tissue uptake at 5 min? Reply with the label of the item you choose.
Result :: a
